assay: chemical genetic growth profiling, strain panel (AID 1159580);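 note: tested at 20 µM; growth read once vehicle control cultures reached saturation at 30 °C; 1 = growth at the plate median or of vehicle wells; lower values mean less growth of the strain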; settings: S. cerevisiae deletion strains, growth OD, locus YPR106W, strain ISR1
In all, about 5,500 compounds went through this assay and about 2,000 (36%) were called active. Roughly 18% stayed inconclusive and do not appear here. Cut-off read from the data, not from the text of the source: active = normalized growth mostly below about 0.91 (no sharp cut-off); inconclusive = no clear call, values can overlap the other calls; inactive = mostly above about 0.92. Some of the results follow.
Possible outcomes: t for active, f for inactive

{"molecule": "Cn1nc(-c2ccccc2)c(O)c(N=Nc2ccccc2)c1=O", "assigned_class": "f"}
{"molecule": "OC(CSc1ccccc1)CN1CCN(c2nc(-c3ccccc3)ns2)CC1 (centres undefined)", "assigned_class": "f"}
{"molecule": "O=C(Nc1cc2c(s1)-c1cc(Cl)ccc1SC2)Oc1ccccc1", "assigned_class": "f"}
{"molecule": "CSc1nnc(COc2ccc(C)c3c2CCC3)n1-c1ccccc1", "assigned_class": "f"}
{"molecule": "O=C(NNC(=S)Nc1ccc(Cl)cc1)c1ncc(C(F)(F)F)cc1Cl", "assigned_class": "f"}
{"molecule": "S=C(Nc1ccc(Cl)cc1)Nc1ccc(Cl)cc1", "assigned_class": "f"}
{"molecule": "FC(F)(F)c1cc(-c2ccc(Cl)cc2)n[nH]1", "assigned_class": "f"}
{"molecule": "Cc1ccc(OCc2n[nH]c(=S)n2Cc2ccccc2)c2c1CCC2", "assigned_class": "f"}
{"molecule": "Clc1ccc(N/N=C\\c2sccc2Oc2ccccc2)cc1", "assigned_class": "f"}
{"molecule": "CN1c2ccccc2C(C)(C)C12C=Cc1cc(O)ccc1O2 (centres undefined)", "assigned_class": "f"}
{"molecule": "S=C(N/N=C\\c1cccs1)NC1CC2CCC1C2 (centres undefined)", "assigned_class": "f"}
{"molecule": "CCOC(=O)c1cnc2c(c(C)nn2C)c1Sc1nnc(SC)s1", "assigned_class": "f"}
{"molecule": "C/C(=N/NC(=O)c1ccc(C(C)(C)C)cc1)c1ccccc1O", "assigned_class": "f"}
{"molecule": "O=c1c(-c2ccccc2)c(O)c2cccc3c4ccccc4n1c23", "assigned_class": "t"}

###

assay: chemical genetic growth profiling, strain panel (AID 1159580);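 note: tested at 20 µM; growth read once vehicle control cultures reached saturation at 30 °C; 1 = growth at the plate median or of vehicle wells; lower values mean less growth of the strain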; conditions: S. cerevisiae deletion strains, growth OD, locus YLR384C, strain iki3, hits give low values
Among all 5,500 compounds or so, about 2,000 (36%) were called active. Another 18% or so got no clear call; they are omitted. This is one part of the list.
endpoint_name: normalized growth

{"molecule": "CC1(C)C(=O)[C@@H]2C[C@@]3(O)C4=CC(=O)O[C@@H](c5ccoc5)[C@]4(C)CCC3[C@@](C)(C2=O)[C@H]1CC(=O)O (stereo not given in full)", "numeric_result": 0.992}
{"molecule": "COc1c2ccoc2cc2oc(C)cc(=O)c12", "numeric_result": 1}
{"molecule": "Cc1ccc(N(CC2=NCCN2)c2cccc(O)c2)cc1", "numeric_result": 1.02}
{"molecule": "CC(=O)OC[C@H]1O[C@@H](Oc2cc(OC(C)=O)c3c(=O)cc(-c4ccc(OC(C)=O)cc4)oc3c2)[C@H](OC(C)=O)[C@@H](OC(C)=O)[C@@H]1OC(C)=O", "numeric_result": 0.965}
{"molecule": "CN1C(=O)CCS(=O)(=O)C1c1ccc(Cl)cc1 (stereo not given)", "numeric_result": 0.996}
{"molecule": "CO[C@@]1(NC(=O)Cc2cccs2)C(=O)N2C(C(=O)O)=C(COC(N)=O)CS[C@@H]21", "numeric_result": 0.968}
{"molecule": "CC(=O)Oc1ccccc1C(=O)O", "numeric_result": 0.971}
{"molecule": "COc1ccc2c(=O)ccoc2c1", "numeric_result": 1.02}
{"molecule": "Cc1cc(C(C)(C)C)c(O)c(C)c1CC1=NCCN1", "numeric_result": 1.02}
{"molecule": "O=C(CCBr)N1CCN(C(=O)CCBr)CC1", "numeric_result": 1.02}

###

experiment: chemical genetic growth profiling, strain panel (AID 1159580);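 note: tested at 20 µM; growth read once vehicle control cultures reached saturation at 30 °C; 1 = growth at the plate median or of vehicle wells; lower values mean less growth of the strain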; details: S. cerevisiae deletion strains, growth OD, locus YMR125W, strain sto1, hits give low values
The whole screen tested about 5,500 compounds, of which about 2,000 (36%) were called active. Roughly 18% stayed inconclusive and do not appear here. Some of the results follow.
endpoint_name: normalized growth

{"compound": "CCOc1ccc(C(=O)c2ccc(OC)c(O)c2O)cc1", "numeric_result": 1.02}
{"compound": "NC1C[C@H]1c1ccccc1 (some centres not stated)", "numeric_result": 0.939}
{"compound": "CC(=O)O[C@H]1CC[C@]2(C)C3CC(=O)[C@]4(C)C(C(C)=O)=CCC4C3CC[C@H]2C1 (some centres not stated)", "numeric_result": 1.01}
{"compound": "COc1ccc(C2C(=O)c3ccccc3C2=O)cc1", "numeric_result": 0.994}
{"compound": "CC(=O)OC1CCC2(C)C3CC(=O)C4(C)C(CC5OC6(CCC(C)CO6)[C@@H](C)C54)C3CC[C@H]2C1 (some centres not stated)", "numeric_result": 0.986}
{"compound": "CCc1cccc2c3c([nH]c12)C(CC)(CC(=O)O)OCC3 (configuration not stated)", "numeric_result": 0.924}
{"compound": "O=C1c2ccccc2C(=O)C1c1ccccc1", "numeric_result": 0.995}
{"compound": "COc1ccc([C@H]2COc3c(ccc(O)c3OC)C2)c(OC)c1O", "numeric_result": 0.979}
{"compound": "CO[C@@]1(NC(=O)Cc2cccs2)C(=O)N2C(C(=O)O)=C(COC(N)=O)CS[C@@H]21", "numeric_result": 0.963}
{"compound": "CCOc1ccc(C(=O)c2ccc(O)c(O)c2O)cc1", "numeric_result": 0.958}
{"compound": "Cc1c(NC(=O)c2cccnc2)c(=O)n(-c2ccccc2)n1C", "numeric_result": 0.969}
{"compound": "CCOc1ccc(NC(C)=O)cc1", "numeric_result": 1.02}

###

assay: chemical genetic growth profiling, strain panel (AID 1159580);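 note: tested at 20 µM; growth read once vehicle control cultures reached saturation at 30 °C; 1 = growth at the plate median or of vehicle wells; lower values mean less growth of the strain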; conditions: S. cerevisiae deletion strains, growth OD, locus YJL166W, strain qcr8
The whole screen tested about 5,500 compounds, of which about 2,000 (36%) were called active. Roughly 18% stayed inconclusive and do not appear here. Cut-off read from the data, not from the text of the source: active = normalized growth mostly below about 0.91 (no sharp cut-off); inconclusive = no clear call, values can overlap the other calls; inactive = mostly above about 0.92. The list shows a part of the results. Where a SMILES comes first, the peptide text is derived from it. Bridges are numbered along the chain shown (N, C = ends). Side-chain parts run from the residue outwards. [ ]: non-standard residue; d: D form. The star is where a group is joined. Octanoyl(6-Me) = CCC(C)CCCCC(=O)*; X1 = CCC(C)C(N)C1=NC(C(=O)*)CS1; Orn = NCCC[CH](N)C(=O)O; Dab = NCC[CH](N)C(=O)O
Outcome codes: active, inactive

{"compound": "OCCN1CCN(CCCN2c3ccccc3Sc3ccc(C(F)(F)F)cc32)CC1", "assigned_class": "inactive"}
{"compound": "COC(=O)C[C@H]1C(C)(C)[C@@H](O)[C@@H]2CC3=C4C=C(OC)O[C@@H](c5ccoc5)[C@]4(C)CCC3[C@@]1(C)C2=O (some centres undefined)", "assigned_class": "inactive"}
{"compound": "OCc1c[nH]c2ccccc12", "assigned_class": "active"}
{"compound": "COc1cc(-c2coc3cc(O[C@@H]4O[C@H](CO)[C@@H](O)[C@H](O)[C@H]4O)c(OC)c(O)c3c2=O)cc(O)c1OC", "assigned_class": "inactive"}
{"compound": "NC(N)=NC(N)=Nc1ccccc1", "assigned_class": "inactive"}
{"compound": "COc1cc(NS(=O)(=O)c2ccc(N)cc2)ncn1", "assigned_class": "inactive"}
{"compound": "CCC1(CC)C(=O)C=CNC1=O", "assigned_class": "inactive"}
{"compound": "CCN(CC)CCNC(=O)c1cc(Cl)c(N)cc1OC", "assigned_class": "inactive"}
{"compound": "CC(C)CC1NC(=O)C(CCCN)NC(=O)C(C(C)C)NC(=O)C2CCCN2C(=O)C(Cc2ccccc2)NC(=O)C(CC(C)C)NC(=O)C(CCCN)NC(=O)C(C(C)C)NC(=O)C2CCCN2C(=O)C(Cc2ccccc2)NC1=O (centres undefined) (cyclo(FPV[Orn]LFPV[Orn]L); configuration not given here)", "assigned_class": "inactive"}
{"compound": "CC(=O)N[C@@H](Cc1c[nH]c2ccccc12)C(=O)O", "assigned_class": "inactive"}
{"compound": "O=c1oc2c(O)c(O)cc3c(=O)oc4c(O)c(O)cc1c4c23", "assigned_class": "active"}
{"compound": "CCC(C)C(N)C1=NC(C(=O)NC(CC(C)C)C(=O)NC(CCC(=O)O)C(=O)NC(C(=O)NCCCCC2NC(=O)C(CC(N)=O)NC(=O)C(CC(=O)O)NC(=O)C(Cc3cnc[nH]3)NC(=O)C(Cc3ccccc3)NC(=O)C(C(C)CC)NC(=O)C(CCCN)NC2=O)C(C)CC)CS1 (stereo not drawn) (cyclo(DNK([Ile-Glu-Leu-X1])[Orn]IFH); configuration not given here)", "assigned_class": "inactive"}
{"compound": "CC(NCCC(c1ccccc1)c1ccccc1)c1ccccc1 (centres undefined)", "assigned_class": "inactive"}
{"compound": "CCC(C)CCCCC(=O)NC(CCN)C(=O)NC(C(=O)NC(CCN)C(=O)NC1CCNC(=O)C(C(C)O)NC(=O)C(CCN)NC(=O)C(CCN)NC(=O)C(CC(C)C)NC(=O)C(Cc2ccccc2)NC(=O)C(CCN)NC1=O)C(C)O (centres undefined) ({Octanoyl(6-Me)}-[Dab]T[Dab][Dab][Dab]FL[Dab][Dab]T; lactam 4-C; configuration not given here)", "assigned_class": "inactive"}
